TARGET_OR_TEST_SYSTEM: Coelenterazine h 2-monooxygenase (Renilla reniformis) (UniProt P27652)
Sequence (P27652 whole entry, looked up): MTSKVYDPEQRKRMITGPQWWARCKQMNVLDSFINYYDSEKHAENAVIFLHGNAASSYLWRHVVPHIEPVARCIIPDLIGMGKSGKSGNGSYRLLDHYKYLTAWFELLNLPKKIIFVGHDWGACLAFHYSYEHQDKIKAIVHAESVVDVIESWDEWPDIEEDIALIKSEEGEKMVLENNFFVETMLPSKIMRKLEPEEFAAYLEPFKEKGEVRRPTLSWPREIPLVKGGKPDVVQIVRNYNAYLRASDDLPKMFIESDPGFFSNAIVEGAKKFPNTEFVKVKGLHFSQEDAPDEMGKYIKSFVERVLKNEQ
MEASUREMENT_DESCRIPTION: qHTS Assay for Inhibitors of Sea Pansy Luciferase from the GSK Published Protein Kinase Inhibitor Set
TEST_SETTINGS: purified Renilla luciferase, luminescence; series mostly up to 57.5 µM
Inconclusive results are not listed. Calls of active or inactive are those of the source. Calls follow the shape of the dose curve; as a rule, active = well fitted inhibition curve with a large enough effect; inconclusive = small, poorly fitted or top-dose-only effect; inactive = no such curve, though single readings can be large or run the other way.
Valid outcomes are listed here; reply with one: 1 (yes) = active, 0 (no) = inactive

For orientation, consider the following solved cases.
MOL | ASSIGNED_CATEGORY
c1cnn2ncc(-c3ccnc(Nc4ccc5c(c4)OCCO5)n3)c2c1 | 0 (no)
CN1CCN(CCCNc2nc3ccc(Oc4ccc(NC(=O)Nc5cc(C(F)(F)F)ccc5F)cc4)cc3[nH]2)CC1 | 1 (yes)
FC(F)(F)c1ccc(-c2nn3ncccc3c2-c2ccnc(Nc3ccc4c(c3)OCCO4)n2)cc1 | 0 (no)

IN: Please indicate how the test categorized `CCn1c(-c2nonc2N)nc2ccncc21` .
OUT: 0 (no)

IN: Please indicate how the test categorized `COc1ccccc1-c1cc(C=C2C(=O)Nc3ncc(Br)cc32)cc(Br)c1O` .
OUT: 1 (yes)

IN: Please indicate how the test categorized `CCn1c(-c2nonc2N)nc2cncc(C(=O)N3CCNCC3)c21` .
OUT: 0 (no)

IN: Please indicate how the test categorized `CN(c1ccc(NC(=O)NCCN2CCOCC2)cc1)c1ccnc(Nc2ccc(CS(C)(=O)=O)cc2)n1` .
OUT: 0 (no)

IN: Please indicate how the test categorized `O=C1N=c2ccc(N=Cc3c(O)[nH]c4ccccc34)cc2=N1` .
OUT: 0 (no)

IN: Please indicate how the test categorized `COc1cc2ncn(-c3cc(OCc4ccccc4C(F)(F)F)c(C(N)=O)s3)c2cc1OC` .
OUT: 0 (no)

IN: Please indicate how the test categorized `Fc1ccc(-c2cc(-c3cn[nH]c3-c3ccccn3)ccn2)cc1` .
OUT: 0 (no)
